- Tested on: barnyardgrass (Echinochloa crus-galli)
- assayMethodText: Test G Pre-Emergence Protocol
- Type: in vivo
- studyConditions: Echinochloa crus-galli, pre-emergence, 312 h, 62.5 g ai/ha, evaluated after 13 days, 100=total damage to plant, 0=no damage to plant, read-out: plant damage rating, Barnyardgrass
Assign pest or weed control at 62.5 g/ha to each entry below.
Response body: numeric value in %, unit text excluded.

Prompt line: I have this molecule here, Cc1n[nH]cc1NC(=O)[C@@H]1C(=O)N(C)C[C@H]1c1ccc(C(F)(F)F)cc1 (racemic) , and I need its recorded pest or weed control at 62.5 g/ha.
Response line: 0

Prompt line: I have this molecule here, Cc1nccc(NC(=O)[C@@H]2C(=O)N(C)C[C@H]2c2ccc(C(F)(F)F)cc2)c1C (racemic) , and I need its recorded pest or weed control at 62.5 g/ha.
Response line: 0

Prompt line: I have this molecule here, C=Cc1ccc([C@H]2CN(C)C(=O)[C@@H]2C(=O)Nc2ccccc2F)cc1 (racemic) , and I need its recorded pest or weed control at 62.5 g/ha.
Response line: 0

Prompt line: I have this molecule here, CN1C[C@H](c2ccc(C(F)(F)F)cc2)[C@@H](C(=O)Nc2cnccc2O)C1=O (racemic) , and I need its recorded pest or weed control at 62.5 g/ha.
Response line: 0

Prompt line: I have this molecule here, Cc1nc(NC(=O)[C@@H]2C(=O)N(C)C[C@H]2c2ccc(C(F)(F)F)cc2)ccc1F (racemic) , and I need its recorded pest or weed control at 62.5 g/ha.
Response line: 0

Prompt line: I have this molecule here, C=CCc1c(Cl)cccc1NC(=O)[C@H]1C(=O)N(C)C[C@@H]1c1ccc(C(F)(F)F)cc1 (racemic) , and I need its recorded pest or weed control at 62.5 g/ha.
Response line: 10

Prompt line: I have this molecule here, CN1C[C@@H](c2ccc(C(F)(F)F)cc2)[C@H](C(=O)Nc2cccc(C(F)(F)F)c2[N+](=O)[O-])C1=O (racemic) , and I need its recorded pest or weed control at 62.5 g/ha.
Response line: 20

Prompt line: I have this molecule here, CN1C[C@@H](c2ccc(C(F)(F)F)cc2)[C@H](C(=O)Nc2ncc(C(F)(F)F)s2)C1=O (racemic) , and I need its recorded pest or weed control at 62.5 g/ha.
Response line: 0

Prompt line: I have this molecule here, CN1C[C@@H](c2ccc(C(F)(F)F)cc2)[C@H](C(=O)Nc2ncnn2C)C1=O (racemic) , and I need its recorded pest or weed control at 62.5 g/ha.
Response line: 0

Prompt line: I have this molecule here, CN1C[C@H](c2ccc(F)c(C#N)c2)[C@@H](C(=O)Nc2ccccc2F)C1=O (racemic) , and I need its recorded pest or weed control at 62.5 g/ha.
Response line: 70

Prompt line: I have this molecule here, CN1C[C@@H](c2cnc(Cl)c(F)c2)[C@H](C(=O)Nc2cccc(F)c2F)C1=O (racemic) , and I need its recorded pest or weed control at 62.5 g/ha.
Response line: 60

Prompt line: I have this molecule here, Cc1csc(NC(=O)[C@@H]2C(=O)N(C)C[C@H]2c2ccc(C(F)(F)F)cc2)c1C#N (racemic) , and I need its recorded pest or weed control at 62.5 g/ha.
Response line: 70

Prompt line: I have this molecule here, CN1C[C@@H](c2ccc(C(F)(F)F)cc2)[C@H](C(=O)Nc2ccnc(Cl)c2)C1=O (racemic) , and I need its recorded pest or weed control at 62.5 g/ha.
Response line: 0

Prompt line: I have this molecule here, CN1C[C@H](c2ccc(C(F)(F)F)cc2)[C@@H](C(=O)Nc2cccc(F)n2)C1=O (racemic) , and I need its recorded pest or weed control at 62.5 g/ha.
Response line: 60
